- System: A498 renal
- method_description: NCI-60 one-dose screen, 48 h
- condition_label: 10 µM unless noted
Compounds without any hit were thinned out: in the full panel of roughly 83,000, 20% have a hit. The source made the active and inactive calls. The calls were made as follows: active = growth percent below 10; inactive = the rest.
Thanks in advance; please answer with one of these: active, inactive

Task: Answer briefly: the call reported for Cc1c(CN2CCN(C(=O)[C@H](C)O)CC2)sc2c(N3CCOCC3)nc(-c3cnc(N)nc3)nc12 in this assay.
Output: active

Task: Another: CCc1nc(C(N)=O)c(Nc2ccc(N3CCC(N4CCN(C)CC4)CC3)c(OC)c2)nc1NC1CCOCC1
Output: active

Task: What about CN(C)C[C@@H]1CCn2cc(c3ccccc32)C2=C(C(=O)NC2=O)c2cn(c3ccccc23)CCO1 ?
Output: active

Task: Do the same for Clc1ccc2c(NCCCNCc3ccc4c(c3)OCO4)ccnc2c1 please
Output: inactive

Task: Same read-out for Cc1csc(-c2nnc(Nc3ccc(Oc4ncccc4-c4ccnc(N)n4)cc3)c3ccccc23)c1 ?
Output: inactive

Task: // query: CC(C)(C)c1cnc(CSc2cnc(NC(=O)C3CCNCC3)s2)o1
Output: active

Task: Input Cc1ccc(N=C2CSc3nnc(-c4csc5c4CCCC5)n3N2)cc1
Output: inactive

Task: Follow-up entry: COc1cc(Nc2ncc(F)c(Nc3ccc4c(n3)NC(=O)C(C)(C)O4)n2)cc(OC)c1OC
Output: active

Task: Check C=CC[n+]1c(/C=C/C=C2\N(C)c3ccccc3C2(C)C)sc2ccc(OC)cc21 too.
Output: inactive

----------
- Test system: NCI-H23 lung
- method_description: NCI-60 one-dose screen, 48 h
- condition_label: 10 µM unless noted
Compounds without any hit were thinned out: in the full panel of roughly 83,000, 20% have a hit. Active and inactive are the calls of the source. The calls were made as follows: active = growth percent below 10; inactive = the rest.
Form entry, call: pick from active, inactive

Task: Call for entry CCCCCCC1(/C=N/NC(N)=O)NC(=O)NC1=O (centres undefined) :
Output: inactive

Task: Repeat for the following compound: COc1cc2c(Oc3ccc(NC(=O)C4(C(=O)Nc5ccc(F)cc5)CC4)cc3F)ccnc2cc1OCCCN1CCOCC1
Output: inactive

Task: Likewise for CC(N)C(Cc1ccc(Cl)cc1)c1ccc(Cl)cc1 (centres undefined) ?
Output: inactive

Task: Proceed to Clc1ccc2c(NCCCNCc3ccc4c(c3)OCO4)ccnc2c1
Output: inactive

Task: Now consider O=C(c1c(F)ccc(NS(=O)(=O)N2CC[C@@H](F)C2)c1F)c1c[nH]c2ncc(-c3cnc(C4CC4)nc3)cc12 and answer again.
Output: inactive

Task: Likewise for CC12O[C@H](C[C@@H](OC(=O)CCC(=O)O)[C@H]1O)n1c3ccccc3c3c4c(c5c6ccccc6n2c5c31)C(=O)NC4=O ?
Output: inactive

Task: Further, for COCC(=O)NC/C=C/c1ccc2ncnc(Nc3ccc(Oc4ccc(C)nc4)c(C)c3)c2c1 ?
Output: inactive

Task: Queued: CC(C)Nc1cc(-c2c[nH]c(C(=O)N[C@H](CO)c3cccc(Cl)c3)c2)c(Cl)cn1
Output: inactive

Task: Another compound to look at: C=C1CC[C@@H]2[C@](C)(COC(C)=O)[C@H](OC(C)=O)CC[C@@]2(C)[C@@H]1C/C=C1/C(=O)OC[C@H]1OC(C)=O
Output: inactive

Task: Further, for CCCCn1c(C)nc2ccc(Nc3nc(N4CCN(C)CC4)nc4nc[nH]c34)cc21 ?
Output: inactive

Task: What do we get for CCN1CCN(Cc2ccc(NC(=O)Nc3nc(-c4cc(OC)c(OC)c(OC)c4)cs3)cc2C(F)(F)F)CC1 ?
Output: inactive

Task: Input CCc1ccc(/C=C/c2ccc(O)c3ncccc23)[n+](C)c1
Output: inactive

Task: Now consider COc1ccc2c(CCC(c3ccccc3)c3ccccc3)c3[n+](cc2c1OC)CCc1cc2c(cc1-3)OCO2 and answer again.
Output: active

Task: CC(=O)C(C(C)=O)C(c1ccccc1)C(C(C)=O)C(C)=O , same question.
Output: inactive

Task: Same read-out for O=C(NC1CCNCC1)c1[nH]ncc1NC(=O)c1c(Cl)cccc1Cl ?
Output: active

Task: Note, next up: CCOc1ccc(N=C(C)Nc2ccc(OCC)cc2)cc1
Output: inactive

Task: Repeat with C[N+](C)(CCOC(c1ccccc1)c1ccccc1)CC(=O)OCc1ccccc1
Output: inactive

Task: Quick one: CCNC(=O)C#Cc1ccc2c(C(=Nc3ccc(CN(C)C)cc3)c3ccccc3)c(O)[nH]c2c1
Output: inactive

Task: Same question for Cc1cc(Nc2cc(N3CCN(C)CC3)nc(Sc3ccc(NC(=O)C4CC4)cc3)n2)n[nH]1 please.
Output: inactive
